# EXPERIMENTAL_SYSTEM: NusA-SKK (Escherichia coli, UniProt P0AFF6 132-348)
# Sequence (P0AFF6 132-348): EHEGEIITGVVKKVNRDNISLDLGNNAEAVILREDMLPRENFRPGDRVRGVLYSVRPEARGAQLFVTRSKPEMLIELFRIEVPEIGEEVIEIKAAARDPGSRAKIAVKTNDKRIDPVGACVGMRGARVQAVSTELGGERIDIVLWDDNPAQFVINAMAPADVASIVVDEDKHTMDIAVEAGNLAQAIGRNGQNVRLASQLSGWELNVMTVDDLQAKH
# METHOD_DESCRIPTION: fluorescence anisotropy
pKd: −log10 of the molar value.
Rule: 1 (yes) for pKd not less than 4, 0 (no) for anything less.

Please review the entries below; each comes with its answer.
Exercise: Check the entry ACAAUUUA (ssRNA) [rrn spacer (III)] : does pKd equal or exceed 4?
Key: 1 (yes)

Exercise: How about this binder: CGCUCUUAAAAAUUAA (ssRNA) [nutL boxA-spacer]
Key: 1 (yes)

Continuing:
Exercise: Quick check: does CACUGCUCUUUAACAAUUUA (ssRNA) [rrn cac-boxA-spacer] have pKd greater than or equal to 4?
Key: 1 (yes)

Exercise: Continue with AAAAUUAA (ssRNA) [nutL spacer]
Key: 1 (yes)

Exercise: What do we get for CACAUUCCA (ssRNA) [nutR spacer] ?
Key: 0 (no)
